- Test system: L. mexicana promastigotes
- Protocol Summary: MTT viability assay against L. mexicana promastigotes
- Format: cell-based, Leishmania mexicana
- Details: Leishmania mexicana, 48 h, read-out: L. mexicana Promastigote IC50, promastigotes, 48 h, MTT
For each entry below, report its IC50 value.

INSERT INTO measurements (molecule, result) VALUES
  ('Cc1nn(-c2ccccc2)c(O)c1C(c1ccc(N(C)C)cc1)c1c(C)nn(-c2ccccc2)c1O', '> 50 µM'),
  ('CSc1ccc(C(c2c(C)nn(-c3ccccc3)c2O)c2c(C)nn(-c3ccccc3)c2O)cc1', '30 µM'),
  ('COC(=O)c1ccc(C(c2c(C)nn(-c3ccccc3)c2O)c2c(C)nn(-c3ccccc3)c2O)cc1', '13 µM'),
  ('C[C@@H]1[C@H](O)[C@@H](C)/C=C/C=C/C=C/C=C/C=C/C=C/C=C/[C@H](O[C@@H]2O[C@H](C)[C@@H](O)[C@H](N)[C@@H]2O)C[C@@H]2O[C@](O)(C[C@@H](O)C[C@@H](O)[C@H](O)CC[C@@H](O)C[C@@H](O)CC(=O)O[C@H]1C)C[C@H](O)[C@H]2C(=O)O [Amphotericin B, reference compound]', '0.17 µM');

Report IC50 for each item below.
1. Cc1nn(-c2ccccc2)c(O)c1C(c1cccc([N+](=O)[O-])c1)c1c(C)nn(-c2ccccc2)c1O
2. Cc1nn(-c2ccccc2)c(O)c1C(c1ccccc1C(F)(F)F)c1c(C)nn(-c2ccccc2)c1O

[A]
≤ 10 µM
≤ 10 µM
